Assay: log P (HPLC/MS data of the preparation examples)
Conditions: HPLC (LC-MS) method [b]: pH 2.7, 0.1% formic acid in water and acetonitrile, linear gradient 10% to 95% acetonitrile; EEC directive 79/831 Annex V.A8
quantity: log p

Before answering, review these 8 worked examples.
>  <smiles-code>
Cn1ncnc1C(=NOCc1nccc(NC(=O)Cc2ccccc2)n1)c1ncc(C(F)(F)F)cc1Cl

>  <log p>
3.13^[b]

$$$$
>  <smiles-code>
Cn1cccc1C(=NOCc1cccc(N)n1)c1ccc(Cl)nc1

>  <log p>
1.72^[b]

$$$$
>  <smiles-code>
Cn1ncnc1C(=NOCc1cccc(N2C(=O)c3ccccc3C2=O)n1)c1cccs1

>  <log p>
2.64^[b]

$$$$
>  <smiles-code>
Cn1cccc1C(=NOCc1cccc(N2C(=O)c3ccccc3C2=O)n1)c1ccc(Cl)nc1

>  <log p>
3.78^[b]

$$$$
>  <smiles-code>
Cn1cncc1C(=NOCc1csc(NC(=O)COc2ccccc2)n1)c1cccs1

>  <log p>
1.87^[b]

$$$$
>  <smiles-code>
Cn1ncnc1C(=NOCc1cccc(NC(=O)C(C)(C)C)n1)c1ncc(C(F)(F)F)cc1Cl

>  <log p>
3.44^[b]

$$$$
>  <smiles-code>
Cn1ncnc1C(=NOCc1nccc(N)n1)c1ncc(C(F)(F)F)cc1Cl

>  <log p>
1.2^[b]

$$$$
>  <smiles-code>
Cc1cccnc1C(=NOCc1csc(NC(=O)C(C)(C)C)n1)c1cc(C(F)(F)F)ccn1

>  <log p>
3.44^[b]

$$$$

Next compound, log p to be filled in.
Could you share which log p value was measured for `Cn1cncc1C(=NOCc1cccc(NC(=O)COc2ccccc2)n1)c1ccsc1` ? 1.96^[b]

---

Experiment: log P (HPLC/MS data of the preparation examples)
Conditions: LC-MS, method [b]: pH 2.7 with 0.1% formic acid in water and acetonitrile, linear gradient 10% to 95% acetonitrile
quantity: log p

Before answering, review these 4 worked examples.
>  <compound>
CC(C)COC(=O)Nc1cccc(CON=C(c2cccc(F)c2)c2nccn2C)n1 [Example 345]

>  <log p>
2.51^[b]

$$$$
>  <compound>
Cn1ccnc1C(=NOCc1cccc(NC(=O)COc2ccccc2)n1)c1ccccc1 [Example 280]

>  <log p>
2.58^[b]

$$$$
>  <compound>
CCCCCC(=O)Nc1ccnc(CON=C(c2ccccc2)c2nccn2C)n1 [Example 16]

>  <log p>
2.1^[b]

$$$$
>  <compound>
Cn1ncnc1C(=NOCc1cccc(NC(=O)C2CC2)n1)c1ccccc1 [Example 27]

>  <log p>
2.41^[b]

$$$$

Next compound, log p to be filled in.
Could you share which log p value was measured for CCC(=O)Nc1ccnc(CON=C(c2ccccc2)c2nccn2C)n1 [Example 63] ? 1.38^[b]

---

Test: log P (HPLC/MS data of the preparation examples)
Settings: method [b]: LC-MS at pH 2.7, 0.1% formic acid in water / acetonitrile, linear gradient 10% to 95% acetonitrile
Consider the following molecules and their measured log p readings.

Before answering, review these 4 worked examples.
>  <smiles-code>
CSCCC(=O)Nc1cccc(CON=C(c2ccccc2)c2nccn2C)n1

>  <reported-result>
1.9^[b]

$$$$
>  <smiles-code>
CC(C)COC(=O)Nc1cccc(CON=C(c2ccccc2)c2nnc(C(F)(F)F)n2C)n1

>  <reported-result>
4.06^[b]

$$$$
>  <smiles-code>
Cc1ncc(C(=NOCc2cccc(N)n2)c2ccccc2)n1C

>  <reported-result>
0.56^[b]

$$$$
>  <smiles-code>
COc1ccc(CC(=O)Nc2cccc(CON=C(c3ccccc3)c3ncnn3C)n2)cc1

>  <reported-result>
3.02^[b]

$$$$

Could you share which log p value was measured for `Cn1ncnc1C(=NOCc1cccc(NC(=O)CSc2ccccc2)n1)c1ccccc1` ? 3.33^[b]
